# tgt: Recombinant Human NF-kappaB-Inducing Kinase (NIK/MAP3K14) (Homo sapiens)
# method-notes: Inhibition of auto-phosphorylation of recombinant human NIK/MAP3K14 activity (AlphaScreen)
# study-conditions: 5 μM ATP, 1 nM NIK, average if tested more than once
Readings of IC50 for the listed compounds
experimental-readout: IC50

# compound, experimental-readout, recorded-measurement
measured = [
    ("CN1CC[C@@](O)(c2cccc(-c3nc(-c4ccnc(N[C@H]5C[C@@H](O)C5)n4)cs3)c2)C1=O", "IC50", "100 to 500 nM"),
    ("CN1CC[C@@](O)(c2cccc(-c3nc(-c4ccnc(Nc5ccnn5CC5CC5)n4)cs3)c2)C1=O", "IC50", "100 to 500 nM"),
    ("CN1CC[C@@](O)(c2cccc(-c3nc(-c4ccnc(NCc5ccccn5)n4)cs3)c2)C1=O", "IC50", "100 to 500 nM"),
    ("CN1CC[C@@](O)(c2cccc(-c3nc(-c4ccnc(NCCCNS(C)(=O)=O)n4)cs3)c2)C1=O", "IC50", "100 to 500 nM"),
    ("CCc1cc(Nc2nccc(-c3csc(-c4cccc([C@]5(O)CCN(C)C5=O)c4)n3)n2)ncn1", "IC50", "< 100 nM"),
    ("CN1CC[C@@](O)(c2cccc(-c3nc(-c4ccnc(NC5CC6CC(O)C5C6)n4)cs3)c2)C1=O (stereo partly drawn)", "IC50", "100 to 500 nM"),
    ("CN1CC[C@@](O)(c2cccc(-c3nc(-c4ccnc(Nc5cccc(C(F)(F)F)n5)n4)cs3)c2)C1=O", "IC50", "< 100 nM"),
    ("CN1CC[C@@](O)(c2ccnc(-c3csc(-c4ccnc(Nc5ccnn5C)n4)n3)c2)C1=O (single isomer, unassigned)", "IC50", "< 100 nM"),
    ("Cc1nn(C)cc1Nc1nccc(-c2csc(-c3cccc([C@]4(O)CCN(C)C4=O)c3)n2)n1", "IC50", "< 100 nM"),
    ("CN1CC[C@@](O)(c2cccc(-c3nc(-c4ccnc(Nc5cc6ccccn6n5)n4)cs3)c2)C1=O", "IC50", "100 to 500 nM"),
    ("CN1CC[C@@](O)(c2ccnc(-c3ccn(-c4ccnc(Nc5ccn(C)n5)n4)n3)c2)C1=O (racemic)", "IC50", "< 100 nM"),
    ("Cc1cccnc1CNc1nccc(-c2csc(-c3cccc([C@]4(O)CCN(C)C4=O)c3)n2)n1", "IC50", "< 100 nM"),
    ("Cc1cc(CNc2nccc(-c3csc(-c4cccc([C@]5(O)CCN(C)C5=O)c4)n3)n2)ccn1", "IC50", "< 100 nM"),
    ("C[C@@H](Nc1nccc(-c2csc(-c3cccc([C@]4(O)CCN(C)C4=O)c3)n2)n1)c1cn[nH]c1 (single isomer, unassigned) [Example 293]", "IC50", "< 100 nM"),
    ("CN1CC[C@@](O)(c2cccc(-c3nc(-c4ccnc(NCc5ncccn5)n4)cs3)c2)C1=O", "IC50", "100 to 500 nM"),
]

---

# System: p-IKKa levels in L363 (NIK translocated multiple myeloma) cells
# method-notes: Effect of compounds on p-IKKa levels in L363 (NIK translocated multiple myeloma) cells (AlphaLISA SureFire Ultra p-IKKa Ser176/180)
# Type: cell-based, human
# study-conditions: Homo sapiens, L-363, p-IKKa levels in L363 cells; average if tested more than once; read-out: Assay 2 IC50
Quick reference for IC50 among some compounds

# compound, IC50
measured = [
    ("CN1CC[C@@](O)(c2cccc(-c3nc(-c4ccnc(Nc5cn6ccccc6n5)n4)cs3)c2)C1=O", "> 0.501 µM"),
    ("Cc1ncc(C#N)cc1Nc1nccc(-c2csc(-c3cccc([C@]4(O)CCN(C)C4=O)c3)n2)n1", "0.1 to 0.5 µM"),
    ("C[C@H](Nc1nccc(-n2ccc(-c3cccc([C@]4(O)CCN(C)C4=O)c3)n2)n1)c1cnn(C)c1 (single isomer, unassigned)", "0.1 to 0.5 µM"),
    ("COc1cc(Nc2nccc(-c3nc(-c4cccc([C@]5(O)CCN(C)C5=O)c4)cs3)n2)n(C)n1", "> 0.501 µM"),
    ("CN1CC[C@@](O)(c2cccc(-c3nc(-c4ccnc(Nc5ccn(CCO)n5)n4)cs3)c2)C1=O", "0.1 to 0.5 µM"),
    ("CN1CC[C@@](O)(c2cccc(-c3nc(-c4ccnc(NC5(CO)CCC5)n4)cs3)c2)C1=O", "> 0.501 µM"),
    ("CN1CC[C@@](O)(c2cccc(-c3nc(-c4ccnc(Nc5ccn(-c6ccccc6)n5)n4)cs3)c2)C1=O", "0.1 to 0.5 µM"),
    ("CC(Nc1nccc(-c2nc(-c3cc([C@]4(O)CCN(C)C4=O)ccn3)cs2)n1)c1cnn(C)c1 (single isomer, unassigned)", "0.1 to 0.5 µM"),
    ("CCn1ncc(C)c1Nc1nccc(-c2csc(-c3cccc([C@]4(O)CCN(C)C4=O)c3)n2)n1", "> 0.501 µM"),
    ("Cc1nccc(Nc2nccc(-c3csc(-c4cccc([C@]5(O)CCN(C)C5=O)c4)n3)n2)n1", "> 0.501 µM"),
    ("C[C@H](Nc1nccc(-c2nc(-c3cccc([C@]4(O)CCN(C)C4=O)c3)cs2)n1)c1ccnn1C (single isomer, unassigned)", "0.1 to 0.5 µM"),
    ("CN1CC[C@@](O)(c2cccc(-c3csc(-c4ccnc(Nc5ccnn5C)n4)n3)c2)C1=O", "< 0.1 µM"),
    ("Cc1cc(CNc2nccc(-c3csc(-c4cccc([C@]5(O)CCN(C)C5=O)c4)n3)n2)n[nH]1 [Example 195]", "> 0.501 µM"),
    ("CN1CC[C@@](O)(c2cccc(-c3nc(-c4ccnc(Nc5cn(CC(F)F)nc5OC5CC5)n4)cs3)c2)C1=O", "< 0.1 µM"),
    ("CN1CC[C@@](O)(c2cccc(-c3nc(-c4ccnc(NC[C@@H]5CCCO5)n4)cs3)c2)C1=O", "> 0.501 µM"),
    ("CCCn1ccc(Nc2nccc(-c3csc(-c4cccc([C@]5(O)CCN(C)C5=O)c4)n3)n2)n1", "0.1 to 0.5 µM"),
    ("CN1CC[C@@](O)(c2cccc(-c3nc(-c4ccnc(Nc5cc(C(F)(F)F)n(C)n5)n4)cs3)c2)C1=O", "> 0.501 µM"),
    ("CN1CC[C@@](O)(c2cccc(-c3csc(-c4ccnc(Nc5cnn(C(CO)CO)c5)n4)n3)c2)C1=O", "> 0.501 µM"),
    ("CN1CC[C@@](O)(c2cccc(-c3nc(-c4ccnc(Nc5ccnn5C)n4)cs3)c2)C1=O", "< 0.1 µM"),
    ("Cc1ccnc(CNc2nccc(-c3csc(-c4cccc([C@]5(O)CCN(C)C5=O)c4)n3)n2)n1", "> 0.501 µM"),
    ("CN1CC[C@@](O)(c2cccc(-c3nc(-c4ccnc(NCc5ccncn5)n4)cs3)c2)C1=O", "> 0.501 µM"),
    ("CN1C[C@H](Nc2nccc(-c3csc(-c4cccc([C@]5(O)CCN(C)C5=O)c4)n3)n2)CC1=O (single isomer, unassigned)", "> 0.501 µM"),
    ("C[C@@H](Nc1nccc(-n2ccc(-c3cccc([C@]4(O)CCN(C)C4=O)c3)n2)n1)c1ccnn1C (single isomer, unassigned)", "< 0.1 µM"),
    ("CN1CC[C@@](O)(c2cccc(-c3nc(-c4ccnc(NC5CCc6cccnc65)n4)cs3)c2)C1=O (stereo partly shown)", "> 0.501 µM"),
    ("CN1CC[C@@](O)(c2cccc(-c3nc(-c4ccnc(N[C@@H]5[C@@H]6COC[C@@H]65)n4)cs3)c2)C1=O", "> 0.501 µM"),
    ("CN1CC[C@@](O)(c2cccc(-c3nc(-c4ccnc(NCCc5cn(C)cn5)n4)cs3)c2)C1=O", "> 0.501 µM"),
    ("Cc1nocc1Nc1nccc(-c2csc(-c3cccc([C@]4(O)CCN(C)C4=O)c3)n2)n1", "< 0.1 µM"),
    ("CN1CC[C@@](O)(c2cccc(-c3nc(-c4ccnc(Nc5cnn(CC(F)F)c5)n4)cs3)c2)C1=O", "< 0.1 µM"),
]

---

# tgt: Recombinant Human NF-kappaB-Inducing Kinase (NIK/MAP3K14) (Homo sapiens, UniProt Q99558)
# Sequence (Q99558 whole entry): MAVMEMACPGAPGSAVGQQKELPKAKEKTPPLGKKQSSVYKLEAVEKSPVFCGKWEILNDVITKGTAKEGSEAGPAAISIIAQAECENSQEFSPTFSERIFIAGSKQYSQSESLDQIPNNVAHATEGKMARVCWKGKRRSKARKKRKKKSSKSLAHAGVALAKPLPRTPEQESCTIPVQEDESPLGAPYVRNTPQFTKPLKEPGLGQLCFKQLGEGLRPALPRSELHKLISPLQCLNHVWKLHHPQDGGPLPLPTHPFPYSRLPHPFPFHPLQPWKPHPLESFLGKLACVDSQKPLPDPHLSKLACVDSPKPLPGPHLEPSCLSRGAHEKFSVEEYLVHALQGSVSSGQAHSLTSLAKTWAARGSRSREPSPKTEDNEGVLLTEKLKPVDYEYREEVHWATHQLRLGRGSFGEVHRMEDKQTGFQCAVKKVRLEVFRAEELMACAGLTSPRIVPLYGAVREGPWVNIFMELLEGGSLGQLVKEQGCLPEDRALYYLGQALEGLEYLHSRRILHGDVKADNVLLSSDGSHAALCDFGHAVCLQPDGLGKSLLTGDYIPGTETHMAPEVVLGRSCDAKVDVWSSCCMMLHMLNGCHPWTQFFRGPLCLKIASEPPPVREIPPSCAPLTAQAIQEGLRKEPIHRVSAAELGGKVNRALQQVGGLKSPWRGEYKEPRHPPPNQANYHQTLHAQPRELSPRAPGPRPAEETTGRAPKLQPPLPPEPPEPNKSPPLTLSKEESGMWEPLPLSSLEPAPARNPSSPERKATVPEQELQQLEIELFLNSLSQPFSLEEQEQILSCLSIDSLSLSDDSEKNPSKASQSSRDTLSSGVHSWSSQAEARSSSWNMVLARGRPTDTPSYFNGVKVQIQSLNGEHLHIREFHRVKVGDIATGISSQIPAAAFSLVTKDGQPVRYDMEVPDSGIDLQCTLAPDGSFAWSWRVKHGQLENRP
# method-notes: Inhibition of auto-phosphorylation of recombinant human NIK/MAP3K14 activity (AlphaScreen)
# study-conditions: 5 μM ATP, 1 nM NIK, average if tested more than once
experimental-readout: IC50

# compound, recorded-measurement
data = [
    ("CN1CCC[C@H](Nc2nccc(-c3csc(-c4cccc([C@]5(O)CCN(C)C5=O)c4)n3)n2)C1=O", "> 501 nM"),
    ("Cc1c(CNc2nccc(-c3csc(-c4cccc([C@]5(O)CCN(C)C5=O)c4)n3)n2)cnn1C", "< 100 nM"),
    ("C[C@@H](Nc1nccc(-c2nc(-c3cc([C@]4(O)CCN(C)C4=O)ccn3)cs2)n1)c1ccn(C)n1 (single isomer, unassigned)", "100 to 500 nM"),
    ("CN1CC[C@@](O)(c2cccc(-c3nc(-c4ccnc(NC5CCN(c6cnn(C)c6)C5)n4)cs3)c2)C1=O (stereo partly shown)", "100 to 500 nM"),
    ("CN1CC[C@@](O)(c2cncc(-c3ccn(-c4ccnc(Nc5cn(CC(F)F)nc5OC5CC5)n4)n3)c2)C1=O (single isomer, unassigned)", "< 100 nM"),
    ("Cc1cc(Nc2nccc(-c3csc(-c4cccc([C@]5(O)CCN(C)C5=O)c4)n3)n2)nn1C", "< 100 nM"),
    ("Cc1ncccc1CNc1nccc(-c2csc(-c3cccc([C@]4(O)CCN(C)C4=O)c3)n2)n1", "< 100 nM"),
]
